test: xn = mol fraction of the nth substance listed, in the solute-free solvent; settings: 283.15 K; x2 = 0.06974
experimental.readout: solubility (g/100 g solution)
Lab note: record just the number, no unit beside it.

Worked set:
molecule: O=c1cc(CBr)c2ccccc2[nH]1 + CCCO + O
solubility (g/100 g solution): 0.038
--
molecule: O=c1cc(CBr)c2ccccc2[nH]1 + CC(C)O + O
solubility (g/100 g solution): 0.0259
--
molecule: CC(C)C(=O)Nc1ccc([N+](=O)[O-])c(C(F)(F)F)c1 + CC(C)O + O
solubility (g/100 g solution): 0.0376
--
molecule: O=C1C=CC(=O)N1c1ccccc1Br + CC(C)O + O
solubility (g/100 g solution): 1.08

Task: Form field: reported solubility (g/100 g solution) of Nc1ncc(Br)nc1Br + CC(C)O + O
Result: 0.0475

---

assay: xn = mol fraction of the nth substance listed, in the solute-free solvent; conditions: 303.15 K; x2 = 0.04165
We use 0.04 as the dividing line for solubility (g/100 g solution): on or above the line is yes, below is no.

molecule: CC(C)C(=O)Nc1ccc([N+](=O)[O-])c(C(F)(F)F)c1 + CCO + O
group.label: no
--
molecule: O=C1C=CC(=O)N1c1ccccc1Br + CCO + O
group.label: yes
--
molecule: Nc1cc(-c2ccncc2)c[nH]c1=O + CCO + O
group.label: no
--
molecule: Nc1ncc(Br)nc1Br + CCO + O
group.label: yes

Here's the next entry for you.
Task: Determine whether this molecule has solubility (g/100 g solution) no lower than 0.04: O=c1cc(CBr)c2ccccc2[nH]1 + CCO + O
Result: yes

---

test: xn = mol fraction of the nth substance listed, in the solute-free solvent; settings: 323.15 K; x2 = 0.9
experimental.readout: solubility (g/100 g solution)
Lab note: record just the number, no unit beside it.

Worked set:
compound: CC(C)C(=O)Nc1ccc([N+](=O)[O-])c(C(F)(F)F)c1 + C1CCOC1 + CC(C)O
solubility (g/100 g solution): 78.2
//
compound: CC(C)C(=O)Nc1ccc([N+](=O)[O-])c(C(F)(F)F)c1 + CC(C)=O + CC(C)O
solubility (g/100 g solution): 79.6
//
compound: Cl.NC1CCSC1=O (centres undefined) + CO + CC#N
solubility (g/100 g solution): 12.3

Task: Form field: reported solubility (g/100 g solution) of CC(C)C(=O)Nc1ccc([N+](=O)[O-])c(C(F)(F)F)c1 + CCOC(C)=O + CC(C)O
Result: 62.6

---

assay: xn = mol fraction of the nth substance listed, in the solute-free solvent; settings: 303.15 K; x2 = 0.03225
Recorded solubility (g/100 g solution) values for a group of compounds are listed next.

Worked set:
compound: O=c1cc(CBr)c2ccccc2[nH]1 + CC(C)O + O
result: 0.0446
--
compound: O=C1C=CC(=O)N1c1ccccc1Br + CC(C)O + O
result: 1.51
--
compound: O=c1cc(CBr)c2ccccc2[nH]1 + CCCO + O
result: 0.0563
--
compound: Nc1ncc(Br)nc1Br + CC(C)O + O
result: 0.032

Let us move to another entry and its solubility (g/100 g solution).
Task: Form field: reported solubility (g/100 g solution) of CC(C)C(=O)Nc1ccc([N+](=O)[O-])c(C(F)(F)F)c1 + CC(C)O + O
Result: 0.0149

---

Recorded solubility (g/100 g solution) values for a group of molecules are listed next.
test: xn = mol fraction of the nth substance listed, in the solute-free solvent; details: 313.15 K; x2 = 0.4117

Worked set:
molecule: CC(C)C(=O)Nc1ccc([N+](=O)[O-])c(C(F)(F)F)c1 + CC(C)O + O
result: 18.9
//
molecule: O=c1cc(CBr)c2ccccc2[nH]1 + CC(C)O + O
result: 0.163
//
molecule: O=c1cc(CBr)c2ccccc2[nH]1 + CCCO + O
result: 0.207

Task: Form field: reported solubility (g/100 g solution) of O=C1C=CC(=O)N1c1ccccc1Br + CC(C)O + O
Result: 12.3

Task: And then Nc1ncc(Br)nc1Br + CC(C)O + O , what is it?
Result: 0.453

---

assay: xn = mol fraction of the nth substance listed, in the solute-free solvent; conditions: 293.15 K; x2 = 0.7
Recorded solubility (g/100 g solution) values for a group of compounds are listed next.
Lab note: record just the number, no unit beside it.

Worked set:
compound: CC(C)C(=O)Nc1ccc([N+](=O)[O-])c(C(F)(F)F)c1 + CC(C)=O + CC(C)O
experimental.readout: solubility (g/100 g solution)
quantitative.readout: 57.4
--
compound: Cl.NC1CCSC1=O (centres undefined) + CO + CC#N
experimental.readout: solubility (g/100 g solution)
quantitative.readout: 6.04
--
compound: CC(C)C(=O)Nc1ccc([N+](=O)[O-])c(C(F)(F)F)c1 + CCOC(C)=O + CC(C)O
experimental.readout: solubility (g/100 g solution)
quantitative.readout: 44.3

Let us move to another entry and its solubility (g/100 g solution).
Task: Form field: reported solubility (g/100 g solution) of CC(C)C(=O)Nc1ccc([N+](=O)[O-])c(C(F)(F)F)c1 + C1CCOC1 + CC(C)O
Result: 57.8

---

experiment: xn = mol fraction of the nth substance listed, in the solute-free solvent; details: 278.15 K; x2 = 0.5454
experimental.readout: solubility (g/100 g solution)
Lab note: record just the number, no unit beside it.

Worked set:
molecule: CC(C)C(=O)Nc1ccc([N+](=O)[O-])c(C(F)(F)F)c1 + CC(C)O + O
quantitative.readout: 11.6
--
molecule: O=c1cc(CBr)c2ccccc2[nH]1 + CCCO + O
quantitative.readout: 0.103
--
molecule: Nc1ncc(Br)nc1Br + CC(C)O + O
quantitative.readout: 0.181
--
molecule: O=C1C=CC(=O)N1c1ccccc1Br + CC(C)O + O
quantitative.readout: 3.85

Task: Form field: reported solubility (g/100 g solution) of O=c1cc(CBr)c2ccccc2[nH]1 + CC(C)O + O
Result: 0.065

---

test: xn = mol fraction of the nth substance listed, in the solute-free solvent; conditions: 278.15 K; x2 = 0.2068
We use 0.3 as the dividing line for solubility (g/100 g solution): on or above the line is Y, below is N.

Solved entries:
compound: CC(C)C(=O)Nc1ccc([N+](=O)[O-])c(C(F)(F)F)c1 + CCO + O
group.label: N

compound: O=c1cc(CBr)c2ccccc2[nH]1 + CCO + O
group.label: N

compound: Nc1ncc(Br)nc1Br + CCO + O
group.label: N

compound: Nc1cc(-c2ccncc2)c[nH]c1=O + CCO + O
group.label: N

Task: Determine whether this compound has solubility (g/100 g solution) no lower than 0.3: O=C1C=CC(=O)N1c1ccccc1Br + CCO + O
Result: Y

---

test: xn = mol fraction of the nth substance listed, in the solute-free solvent; conditions: 303.15 K; x2 = 0.3698
experimental.readout: solubility (g/100 g solution)
Lab note: record just the number, no unit beside it.

Worked set:
molecule: O=C1C=CC(=O)N1c1ccccc1Br + CCO + O
experimental.readout: solubility (g/100 g solution)
quantitative.readout: 10.7
--
molecule: Nc1cc(-c2ccncc2)c[nH]c1=O + CCO + O
experimental.readout: solubility (g/100 g solution)
quantitative.readout: 0.0137
--
molecule: CC(C)C(=O)Nc1ccc([N+](=O)[O-])c(C(F)(F)F)c1 + CCO + O
experimental.readout: solubility (g/100 g solution)
quantitative.readout: 5.48
--
molecule: Nc1ncc(Br)nc1Br + CCO + O
experimental.readout: solubility (g/100 g solution)
quantitative.readout: 0.527

Let us move to another entry and its solubility (g/100 g solution).
Task: Form field: reported solubility (g/100 g solution) of O=c1cc(CBr)c2ccccc2[nH]1 + CCO + O
Result: 0.145

---

test: xn = mol fraction of the nth substance listed, in the solute-free solvent; conditions: 298.15 K; x2 = 0.3698
We use 5 as the dividing line for solubility (g/100 g solution): on or above the line is criterion met, below is criterion not met.

compound: O=c1cc(CBr)c2ccccc2[nH]1 + CCO + O
group.label: criterion not met

compound: CC(C)C(=O)Nc1ccc([N+](=O)[O-])c(C(F)(F)F)c1 + CCO + O
group.label: criterion not met

compound: Nc1ncc(Br)nc1Br + CCO + O
group.label: criterion not met

compound: O=C1C=CC(=O)N1c1ccccc1Br + CCO + O
group.label: criterion met

Here's the next entry for you.
Task: Determine whether this compound has solubility (g/100 g solution) no lower than 5: Nc1cc(-c2ccncc2)c[nH]c1=O + CCO + O
Result: criterion not met
